This collection of values is drawn from patent US20250339569A1.

# experiment: Extended single-dose toxicity study including safety pharmacology endpoints, i.v. bolus (GLP)
# Format: in vivo, beagle dogs
# experimental.conditions: male, beagle, dog, plasma, iv, 400 ug/kg; males, 400 μg/kg i.v.; read-out: mean AUCtlast at the NOAEL
reported.endpoint: AUC(0-t)

Input: Requested read-out: AUC(0-t). Entry: `CC(C)C[C@@H]1NC(=O)[C@H](Cc2cccc(NC(=O)CCCS(N)(=O)=O)c2)NC(=O)[C@H](CC(=O)O)NC(=O)[C@H]2CCCN2C(=O)[C@H](CCC(=O)O)NC(=O)[C@@H](NC(=O)[C@H](CCC(N)=O)NC(=O)CN2CCN(C(=O)CN3CCN(CC(=O)O)CCN(CC(=O)O)CCN(CC(=O)O)CC3)CC2)CSCc2cccc(c2)CSC[C@@H](C(N)=O)NC(=O)[C@H](CO)NC(=O)[C@H](Cc2c[nH]c3ccccc23)NC(=O)[C@H]([C@@H](C)O)NC1=O`
Output: 854 ng·h/mL

###

# experiment: Extended single-dose toxicity study including safety pharmacology endpoints, i.v. bolus (GLP)
# Format: in vivo, beagle dogs
# experimental.conditions: beagle, dog, plasma, iv, 80 ug/kg; Female; 80 μg/kg single i.v. bolus; mean n = 3; read-out: C5 min
reported.endpoint: level at 5 min (ng/mL)
Respond with the bare value in ng/mL.

Input: Requested read-out: level at 5 min. Entry: `CC(C)C[C@@H]1NC(=O)[C@H](Cc2cccc(NC(=O)CCCS(N)(=O)=O)c2)NC(=O)[C@H](CC(=O)O)NC(=O)[C@H]2CCCN2C(=O)[C@H](CCC(=O)O)NC(=O)[C@@H](NC(=O)[C@H](CCC(N)=O)NC(=O)CN2CCN(C(=O)CN3CCN(CC(=O)O)CCN(CC(=O)O)CCN(CC(=O)O)CC3)CC2)CSCc2cccc(c2)CSC[C@@H](C(N)=O)NC(=O)[C@H](CO)NC(=O)[C@H](Cc2c[nH]c3ccccc23)NC(=O)[C@H]([C@@H](C)O)NC1=O`
Output: 346

###

# measured.target: human carbonic anhydrase IX (hCAIX-Fc) (Homo sapiens, UniProt Q16790)
# Construct: purchased SinoBliological (Sino Biological) 10107-H02H
# experiment: Surface plasmon resonance assay with hCAIX-Fc
# Assay type: binding
# experimental.conditions: SPR dissociation half-life, hCAIX-Fc, 25° C.
Starred links: 1 amine or outer side, 2 acyl side, 3 side chain; linkers in the order of their positions; H or OH if unused. Positions of bridges follow the written chain, without caps; N, C: chain ends. Non-standard residues stand in square brackets, D forms with d. Residues, ends and D or L forms follow the SMILES beside them. *: point of attachment. DOTA = O=C(O)CN1CCN(CC(=O)O)CCN(CC(=O)*)CCN(CC(=O)O)CC1; mXylylene = c1cc(C[*:1])cc(C[*:2])c1; X2 = O=C(CN1CCC(N[*:1])CC1)[*:2]

>  <compound>
CC(C)C[C@@H]1NC(=O)[C@H](Cc2c[nH]c3ccccc23)NC(=O)[C@H](CC(=O)O)NC(=O)[C@H]2CCCN2C(=O)[C@H](CCC(=O)O)NC(=O)[C@@H](NC(=O)[C@H](Cc2ccc(O)cc2)NC(=O)[C@@H](NC(=O)CN2CCC(NC(=O)CN3CCN(CC(=O)O)CCN(CC(=O)O)CCN(CC(=O)O)CC3)CC2)C(C)C)CSCc2cccc(c2)CSC[C@@H](C(N)=O)NC(=O)[C@H](C)NC(=O)[C@H](Cc2c[nH]c3ccccc23)NC(=O)[C@H]([C@@H](C)O)NC1=O [3BP-3432] ({DOTA}-[X2]VYCE[dP]DWLTWAC-NH2; linker 4-13 via mXylylene)

>  <t1/2 category (activity)>
A (t1/2>15.0 minutes)

$$$$
>  <compound>
CC(C)C[C@@H]1NC(=O)[C@H](Cc2cccc(NC(=O)CCCS(N)(=O)=O)c2)NC(=O)[C@H](CC(=O)O)NC(=O)[C@H]2CCCN2C(=O)[C@H](CCC(=O)O)NC(=O)[C@@H](NC(=O)[C@H](CCC(N)=O)NC(=O)CN2CCN(CC(=O)O)CCN(CC(=O)O)CCN(CC(=O)O)CC2)CSCc2cccc(c2)CSC[C@@H](C(N)=O)NC(=O)[C@H](CO)NC(=O)[C@H](Cc2c[nH]c3ccccc23)NC(=O)[C@H]([C@@H](C)O)NC1=O

>  <t1/2 category (activity)>
A (t1/2>15.0 minutes)

$$$$

###

Readings of IC50 for the listed compounds
# measured.target: CAIX-expressing human HT-29 colorectal cancer cells (Homo sapiens)
# Construct: CAIX-expressing human HT-29 colorectal cancer cells; host or cells: HT-29 human colorectal cancer cells
# experiment: FACS binding assay (IC50 determination, competition with tracer 3BP-2776 or 3BP-4149)
# experimental.conditions: FACS competition on HT-29 cells, Tracer ID 3BP-2776 (10 nM, biotin-labeled), 4° C., 1 hour; read-out: pIC50 category (activity) (converted)
Starred links: 1 amine or outer side, 2 acyl side, 3 side chain; linkers in the order of their positions; H or OH if unused. Positions of bridges follow the written chain, without caps; N, C: chain ends. Non-standard residues stand in square brackets, D forms with d. Residues, ends and D or L forms follow the SMILES beside them. ξ: configuration not given here. ξTrp(5-Me) = Cc1ccc2[nH]cc(CC(N)C(=O)O)c2c1; mXylylene = c1cc(C[*:1])cc(C[*:2])c1; Pen = CC(C)(S)[C@H](N)C(=O)O; Sar = CNCC(=O)O

# count of solved cases: 4
>  <compound>
CC(=O)N[C@H](C(=O)N[C@@H](Cc1ccc(O)cc1)C(=O)N[C@H]1CSCc2cccc(c2)CSC[C@@H](C(N)=O)NC(=O)[C@H](CCC(N)=O)NC(=O)[C@H](Cc2c[nH]c3ccccc23)NC(=O)[C@H]([C@@H](C)O)NC(=O)[C@H](CC(C)C)NC(=O)C(Cc2c[nH]c3ccc(C)cc23)NC(=O)[C@H](CC(=O)O)NC(=O)CN(C)C(=O)[C@H](CCC(=O)O)NC1=O)C(C)C (some centres unmarked) [3BP-3290] (Ac-VYCE[Sar]D[ξTrp(5-Me)]LTWQC-NH2; linker 3-12 via mXylylene)

>  <IC50>
< 10 nM

$$$$
>  <compound>
CC(=O)N[C@H](C(=O)N[C@@H](Cc1ccc(O)cc1)C(=O)N[C@H]1CSCc2cccc(c2)CSC[C@@H](C(N)=O)NC(=O)[C@H](CCC(N)=O)NC(=O)[C@H](Cc2c[nH]c3ccccc23)NC(=O)[C@H]([C@@H](C)O)NC(=O)[C@H](C)NC(=O)[C@H](Cc2c[nH]c3ccccc23)NC(=O)[C@H](CC(=O)O)NC(=O)CNC(=O)[C@H](CCC(=O)O)NC1=O)C(C)C [3BP-3055] (Ac-VYCEGDWATWQC-NH2; linker 3-12 via mXylylene)

>  <IC50>
100 to 794 nM

$$$$
>  <compound>
CC(=O)N[C@H](C(=O)N[C@@H](Cc1ccc(O)cc1)C(=O)N[C@@H]1C(=O)N[C@@H](CCC(=O)O)C(=O)NCC(=O)N[C@@H](CC(=O)O)C(=O)N[C@@H](Cc2c[nH]c3ccccc23)C(=O)N[C@@H](CC(C)C)C(=O)N[C@@H]([C@@H](C)O)C(=O)N[C@@H](Cc2c[nH]c3ccccc23)C(=O)N[C@@H](CCC(N)=O)C(=O)N[C@H](C(N)=O)CSCc2cccc(c2)CSC1(C)C)C(C)C [3BP-3063] (Ac-VY[Pen]EGDWLTWQC-NH2; linker 3-12 via mXylylene)

>  <IC50>
10 to 79.4 nM

$$$$
>  <compound>
CC(=O)N[C@H](C(=O)N[C@@H](CCCNC(=N)N)C(=O)N[C@H]1CSCc2cccc(c2)CSC[C@@H](C(N)=O)NC(=O)[C@H](CO)NC(=O)[C@H](Cc2c[nH]c3ccccc23)NC(=O)[C@H]([C@@H](C)O)NC(=O)[C@H](CC(C)C)NC(=O)[C@H](Cc2c[nH]c3ccccc23)NC(=O)[C@H](CC(=O)O)NC(=O)[C@H]2CCCN2C(=O)[C@H](CCC(=O)O)NC1=O)C(C)C [3BP-3588] (Ac-VRCE[dP]DWLTWSC-NH2; linker 3-12 via mXylylene)

>  <IC50>
< 10 nM

$$$$

Turning now to a further compound:
Input: Find the measured IC50: item CC(=O)N[C@H](C(=O)N[C@@H](Cc1ccc(O)cc1)C(=O)N[C@H]1CSCc2cccc(c2)CSC[C@@H](C(N)=O)NC(=O)[C@H](C)NC(=O)[C@H](Cc2c[nH]c3ccccc23)NC(=O)[C@H]([C@@H](C)O)NC(=O)[C@H](CC(C)C)NC(=O)[C@H](Cc2c[nH]c3ccccc23)NC(=O)[C@H](CC(=O)O)NC(=O)CN(C)C(=O)[C@H](CCC(=O)O)NC1=O)C(C)C [3BP-3313] (Ac-VYCE[Sar]DWLTWAC-NH2; linker 3-12 via mXylylene) , target or system CAIX-expressing human HT-29 colorectal cancer cells (Homo sapiens).
Output: < 10 nM
